The reported measurements were obtained from patent US20190345225A1.

Consider the following binders and their measured Kd readings.
Target: T1, Activin A (UniProt P08476 311-426)
T1 sequence (looked up): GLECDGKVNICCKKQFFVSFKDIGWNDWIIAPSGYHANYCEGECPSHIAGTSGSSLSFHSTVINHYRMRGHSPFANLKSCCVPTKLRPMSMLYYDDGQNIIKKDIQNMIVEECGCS
Assay: SPR, Biacore 3000; receptor fusion captured on chip, ligand in solution
measured.parameter: Kd (nM)

INSERT INTO results (binder, quantitative_result) VALUES
  ('ActRIIa/bmax2 (SEQ ID NO: 71) fused to the N-terminus of hFc through a GGG linker (Fc fusion, also called ActRIIa/bmax2 variant; not shown: human Fc (hFc)) GAILGRSETQECLFYNANWELERTNQTGVERCEGEKDKRLHCYATWRNISGSIEIVKKGCWLDDFNCYDRTDCVETEENPQVYFCCCEGNMCNEKFSYFPEMEVTQPTSNPGGG', 0.135),
  ('ActRIIa/bmax3 variant (SEQ ID NO: 72) fused to the N-terminus of hFc through a GGG linker (Fc fusion, not shown: human Fc (hFc)) GAILGRSETQECLFYNANWELERTNQTGVERCEGEKDKRLHCYATWRNISGSIEIVKKGCWLDDFNCYDRTDCVETEENPQVYFCCCEGNMCNEKFSYFPEMEVTQPTSNPVTPKGGG', 0.089),
  ('extracellular ActRIIa/bΔ9 variant (SEQ ID NO: 58) fused to the N-terminus of hFc through a GGG linker (Fc fusion, also called ActRIIA/BΔ9-Fc; not shown: human Fc (hFc)) GAILGRSETQECLFYNANWELDRTNQTGVERCEGEKDKRLHCYATWRNISGSIEIVKKGCWLDDFNCYDRTDCVETKENPQVYFCCCEGNMCNEKFSYFPEMEVTQPTSGGG', 0.213);
